Form field: pIC50 (one value per entry).
# Target desc: rh integrin α4β7 (Homo sapiens, UniProt P13612+P26010)
# Construct: purchased R&D Systems 5397-A30
# Sequence (P13612 34-977 limits assumed): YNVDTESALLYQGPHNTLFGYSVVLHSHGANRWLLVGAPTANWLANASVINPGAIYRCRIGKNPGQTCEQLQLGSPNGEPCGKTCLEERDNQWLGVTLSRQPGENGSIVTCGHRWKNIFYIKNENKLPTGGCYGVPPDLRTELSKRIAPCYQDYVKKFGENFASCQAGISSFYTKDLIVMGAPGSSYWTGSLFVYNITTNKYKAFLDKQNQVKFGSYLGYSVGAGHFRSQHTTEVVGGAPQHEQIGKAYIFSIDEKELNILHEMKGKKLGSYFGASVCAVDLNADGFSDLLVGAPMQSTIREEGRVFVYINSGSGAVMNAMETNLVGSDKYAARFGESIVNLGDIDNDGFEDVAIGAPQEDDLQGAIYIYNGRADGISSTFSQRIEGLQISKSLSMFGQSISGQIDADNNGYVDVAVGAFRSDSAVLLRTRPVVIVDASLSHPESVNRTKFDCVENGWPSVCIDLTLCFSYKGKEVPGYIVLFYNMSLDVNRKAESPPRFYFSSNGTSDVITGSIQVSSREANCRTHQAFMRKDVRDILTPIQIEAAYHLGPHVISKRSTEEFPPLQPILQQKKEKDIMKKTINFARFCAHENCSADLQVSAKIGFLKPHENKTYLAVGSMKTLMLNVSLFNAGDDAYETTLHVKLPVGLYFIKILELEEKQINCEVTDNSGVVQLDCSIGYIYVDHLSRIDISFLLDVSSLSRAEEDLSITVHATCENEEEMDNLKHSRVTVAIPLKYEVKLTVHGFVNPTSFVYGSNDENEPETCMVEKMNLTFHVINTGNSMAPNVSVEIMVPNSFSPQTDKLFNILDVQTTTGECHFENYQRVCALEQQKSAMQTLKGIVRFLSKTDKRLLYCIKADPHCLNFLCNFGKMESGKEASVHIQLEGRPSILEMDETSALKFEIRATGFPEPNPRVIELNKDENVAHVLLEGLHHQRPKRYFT
# Sequence (P26010 20-723 limits assumed): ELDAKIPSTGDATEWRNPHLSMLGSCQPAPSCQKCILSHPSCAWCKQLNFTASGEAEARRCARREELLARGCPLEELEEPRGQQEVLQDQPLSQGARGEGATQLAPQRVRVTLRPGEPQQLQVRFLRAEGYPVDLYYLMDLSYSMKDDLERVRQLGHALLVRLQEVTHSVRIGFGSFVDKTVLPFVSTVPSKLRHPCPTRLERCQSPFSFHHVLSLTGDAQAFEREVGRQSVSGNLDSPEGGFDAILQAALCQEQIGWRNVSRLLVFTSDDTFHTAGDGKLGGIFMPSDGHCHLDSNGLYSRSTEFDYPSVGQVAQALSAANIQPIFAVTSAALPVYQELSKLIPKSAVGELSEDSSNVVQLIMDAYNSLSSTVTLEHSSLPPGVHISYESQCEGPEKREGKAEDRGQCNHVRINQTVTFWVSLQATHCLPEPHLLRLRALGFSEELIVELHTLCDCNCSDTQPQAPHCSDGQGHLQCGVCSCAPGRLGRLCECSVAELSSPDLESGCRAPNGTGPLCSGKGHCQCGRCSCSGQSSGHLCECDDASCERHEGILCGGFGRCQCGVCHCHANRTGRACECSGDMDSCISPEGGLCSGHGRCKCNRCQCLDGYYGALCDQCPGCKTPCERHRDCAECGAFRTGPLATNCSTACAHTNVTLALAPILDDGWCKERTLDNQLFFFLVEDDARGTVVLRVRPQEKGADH
# Assay protocol: α4β7-MAdCAM Competition ELISA
# Format: binding
# Recorded conditions: Table 4-B; read-out: ELISA α4β7 IC50
Bridge positions count the residues as written; N and C are the ends. Square brackets hold non-standard residues; d marks the D form. Peptide text beside a SMILES is read from it. NMeR = CN[C@@H](CCCNC(=N)N)C(=O)O
Answer as the number alone; pIC50 is minus log10 of concentration in mol/L.

Molecule: CC(=O)N[C@H]1CSSC[C@@H](C(=O)NCC(=O)N[C@@H](CCC(=O)O)C(N)=O)NC(=O)[C@H](CC(C)C)NC(=O)[C@H]([C@@H](C)O)NC(=O)[C@H](CC(=O)O)NC(=O)[C@H](CO)NC(=O)[C@H](CCCNC(=N)N)N(C)C1=O [compound 198, Ac-C-N-Me-R-S-D-T-L-C-G-E-NH2] (Ac-C[NMeR]SDTLCGE-NH2; disulfide 1-7)
pIC50: 7.70

Here's the next entry for you.
Req: // fetch pIC50 given entry CC(=O)N[C@H]1CSSC[C@@H](C(=O)NCC(=O)N[C@@H](CCC(=O)O)C(=O)N[C@@H](CCCCN)C(N)=O)NC(=O)[C@H](CC(C)C)NC(=O)[C@H]([C@@H](C)O)NC(=O)[C@H](CC(=O)O)NC(=O)[C@H](CO)NC(=O)[C@H](CCCNC(=N)N)NC1=O [compound 196, Ac-C-R-S-D-T-L-C-G-E-K-NH2] (Ac-CRSDTLCGEK-NH2; disulfide 1-7)
Resp: 7.06
